# Tested on: S. pneumoniae ATCC 49619
# assay info: MIC, NCCLS broth microdilution
# Assay type: cell-based, Streptococcus pneumoniae
# conditions: E = S. pneumoniae ATCC 49619

>  <molecule>
Cn1cc(NC(=O)c2cccc(F)n2)cc1C(=O)Nc1ccc(C(=O)Nc2cn(C)c(C(=O)NCCN3CCC(O)CC3)n2)cc1 [Compound A-2]

>  <Minimum Inhibitory Concentration (MIC)>
+++ (MIC ≦ 4 μg/mL)

$$$$
>  <molecule>
Cn1cc(NC(=O)c2cc3ccccc3cn2)cc1C(=O)Nc1ccc(C(=O)Nc2cn(C)c(C(=O)NCCN3CCCC3)n2)cc1 [Compound A-16]

>  <Minimum Inhibitory Concentration (MIC)>
+++ (MIC ≦ 4 μg/mL)

$$$$
>  <molecule>
Cn1cc(NC(=O)c2cc3ccccc3cn2)cc1C(=O)Nc1ccc(C(=O)Nc2cn(C)c(C(=O)NCCN3CCCC(O)C3)n2)cc1 (racemic) [Compound A-69]

>  <Minimum Inhibitory Concentration (MIC)>
+++ (MIC ≦ 4 μg/mL)

$$$$
